The values you see were collected from the supplement of paper PMC9732359.

Property: protein stability index; scope: individual sequences
# assay-remarks: protein stability index of a GFP-peptide fusion (yeast GPS) (PSI 1-4); higher = more stable; sorted into four equal gates, so the index is relative within each strain
# test-settings: pdr5∆
Keep the answer to the number alone.

Below: 4 sequences and their reported protein stability index.
{"entry-sequence": "LKFMAASEVATHSKLFA [PRP8]", "protein stability index": 3.07}
{"entry-sequence": "MDTSDDAFVATAFATEF [DLS1]", "protein stability index": 3.08}
{"entry-sequence": "DQMVVGWYHSHPGFGCW [RPN11]", "protein stability index": 2.92}
{"entry-sequence": "RYWVQKERSDGKRHIFD [CDC53]", "protein stability index": 2.98}

Okay, now this sequence:
Please fill in: protein stability index reported for AGLDEDGKGAVYSFDPV [PRE7] = 3
